# System: Acinetobacter baumannii
# assayComment: Antimicrobial activity against Acinetobacter baumannii assessed as inhibition of microbial growth after 24 hrs
# Format: functional
Activity calls are given as the source filed them. The calls are words filed in the database; no cut-off is given here.
propertyLabel: MIC

Worked cases, MIC given:
CCCCCCCN1C(=N)N(CCCC[C@H]2CNC(=N)N2CCc2cccc(C(F)(F)F)c2)C[C@@H]1CC1CCCCC1 :: 1.5 µM
CCCCCCCN1C(=N)NC[C@@H]1CCCCN1C[C@H]([C@@H](C)CC)N(CCc2cccc(C)c2)C1=N :: inactive
CC[C@H](C)[C@H]1CN(CCCC[C@H]2CNC(=N)N2CC2CCC(C)CC2)C(=N)N1 (stereo partly drawn) :: inactive
CC[C@H](C)[C@H]1CN(CCCC[C@H]2CNC(=N)N2CC2CCC(C)CC2)C(=N)N1CCc1cccc(C)c1 (stereo partly drawn) :: inactive
CCCCCCCN1C(=N)NC[C@@H]1CCCCN1C[C@@H](CCC)N(CCc2cccc(C)c2)C1=N :: inactive
Cc1cccc(CCN2CCN(CCCC[C@H]3CNC(=N)N3CC3CCCCC3)C2=N)c1 :: inactive

Value of measured MIC for the entry CCCC[C@H]1CN(CCCC[C@H]2CNC(=N)N2CCc2cccc(C(F)(F)F)c2)C(=N)N1CCCCC1CCCCC1 : 1.5 µM

Value of measured MIC for the entry N=C1NCCN1CCCC[C@H]1CNC(=N)N1CC1CCCCC1 : inactive

Value of measured MIC for the entry CCC[C@@H]1CN(CCCC[C@H]2CNC(=N)N2CC2CCC(C)CC2)C(=N)N1CCc1cccc(C)c1 (stereo partly drawn) : inactive

Value of measured MIC for the entry CC[C@H](C)[C@H]1CN(CCCC[C@H]2CNC(=N)N2CC2CCCCC2)C(=N)N1 : inactive

Value of measured MIC for the entry CCCCCCCN1C(=N)NC[C@@H]1CCCCN1C[C@@H](CCC)NC1=N : inactive

Value of measured MIC for the entry CCC(C)CN1C(=N)N(CCCC[C@H]2CNC(=N)N2CC2CCCCC2)C[C@@H]1[C@@H](C)CC (stereo partly drawn) : inactive

Value of measured MIC for the entry CCCCCCCN1C(=N)N(CCCC[C@H]2CNC(=N)N2CCCCC2CCCCC2)C[C@@H]1CC1CCCCC1 : 1.6 µM

====

# assayComment: Induction of hemolysis in human RBC at 10 uM incubated for 15 mins
# Format: cell-based, Erythrocyte
# measurementSetup: red blood cells, read-out: Activity
hemolysis at 0.25 h, 10 µM overview

Worked cases, hemolysis at 0.25 h, 10 µM given:
CCCCCCCN1C(=N)N(CCCC[C@H]2CNC(=N)N2CCCCC2CCCCC2)C[C@@H]1CC1CCCCC1 :: 0.34%
CCCC[C@H]1CN(CCCC[C@H]2CNC(=N)N2CCc2cccc(C(F)(F)F)c2)C(=N)N1CCCCC1CCCCC1 :: 0.34%
CCCCCCCN1C(=N)N(CCCC[C@H]2CNC(=N)N2CCc2cccc(C(F)(F)F)c2)C[C@@H]1CC1CCCCC1 :: 0.34%
CCCCCCCN1C(=N)N(CCCC[C@H]2CNC(=N)N2CCC23C[C@H]4C[C@@H](C2)C[C@@H](C3)C4)C[C@@H]1CCCC :: 0.34%

Value of measured hemolysis at 0.25 h, 10 µM for the entry CCCCCCCN1C(=N)N(CCCC[C@H]2CNC(=N)N2CCc2cccc(C(F)(F)F)c2)C[C@@H]1CCCC : 0.34%
